system: GM1 production in Jurkat cells; assay: cells; format: cell-based; settings: Homo sapiens, Jurkat, 72 h
property label: pIC50
In simple prose, pIC50 is minus the logarithm base ten of a concentration in moles per litre.

So for CCCOc1ccc(-c2ccc3c(c2)CC(C)(C)C3NC(=O)O[C@@H]2CN3CCC2CC3)cc1F (stereo partly shown) , the logged pIC50 turned out to be 7.54

So for Cc1ccc(C)c(-c2ccc3c(c2)CC(C)(C)C3NC(=O)O[C@@H]2CN3CCC2CC3)c1 (stereo partly shown) , the logged pIC50 turned out to be 7.84

So for CCCOc1cccc(-c2cc3c(cc2F)C(NC(=O)O[C@@H]2CN4CCC2CC4)C(C)(C)C3)c1 (stereo partly shown) , the logged pIC50 turned out to be 7.45

So for CCCCc1ccc(-c2cc3c(cc2F)C(NC(=O)O[C@@H]2CN4CCC2CC4)C(C)(C)C3)cc1 (stereo partly shown) , the logged pIC50 turned out to be 8.62

So for CC1(C)Cc2cc(-c3ccc(OCC4CC4)nc3)c(F)cc2C1NC(=O)O[C@@H]1CN2CCC1CC2 (stereo partly shown) , the logged pIC50 turned out to be 8.06

So for O=C(NC1CCc2cc(-c3ccc(C(F)(F)F)cc3)ccc21)O[C@@H]1CN2CCC1CC2 (stereo partly shown) , the logged pIC50 turned out to be 6.85

So for CC1(C)Cc2ccc(-c3ccccc3Cl)cc2C1NC(=O)O[C@@H]1CN2CCC1CC2 (stereo partly shown) , the logged pIC50 turned out to be 7.06

So for CC1(C)Cc2cc(-c3ccc(F)c(F)c3)ccc2C1NC(=O)O[C@@H]1CN2CCC1CC2 (stereo partly shown) , the logged pIC50 turned out to be 7.37

So for CC1(C)Cc2cc(-c3cccc4cccnc34)ccc2C1NC(=O)O[C@@H]1CN2CCC1CC2 (stereo partly shown) , the logged pIC50 turned out to be 7.33

So for CC1(C)Cc2cc(-c3ccc(Cl)cc3)ccc2C1NC(=O)O[C@@H]1CN2CCC1CC2 (stereo partly shown) , the logged pIC50 turned out to be 7.89

So for CC(C)(C)c1cccc(-c2ccc3c(c2)CC(C)(C)C3NC(=O)O[C@@H]2CN3CCC2CC3)c1 (stereo partly shown) , the logged pIC50 turned out to be 7.82

So for COc1cc(-c2cc3c(cc2F)C(NC(=O)O[C@@H]2CN4CCC2CC4)C(C)(C)C3)ccn1 (stereo partly shown) , the logged pIC50 turned out to be 6.77

So for CCCCc1ccc(-c2ccc3c(c2)CC(C)(C)C3NC(=O)O[C@@H]2CN3CCC2CC3)cc1 (stereo partly shown) , the logged pIC50 turned out to be 8.19

So for CCCOc1ccc(-c2ccc3c(c2)CC(C)(C)C3NC(=O)O[C@@H]2CN3CCC2CC3)c(OCCC)c1 (stereo partly shown) , the logged pIC50 turned out to be 8.09

So for O=C(NC1CCc2ccc(-c3ccc(F)cc3)cc21)O[C@@H]1CN2CCC1CC2 (stereo partly shown) , the logged pIC50 turned out to be 6.98

So for CC1(C)Cc2cc(-c3ccc4c(c3)OCCCO4)ccc2C1NC(=O)O[C@@H]1CN2CCC1CC2 (stereo partly shown) , the logged pIC50 turned out to be 7.56

* * *

system: GM1 production in Jurkat cells; test: cells; assay type: cell-based; settings: Homo sapiens, Jurkat, 72 h
property label: pIC50
In simple prose, pIC50 is minus the logarithm base ten of a concentration in moles per litre.

So for COc1cc2c(cc1-c1ccc(C3CC3)cc1)CC(C)(C)C2NC(=O)O[C@@H]1CN2CCC1CC2 (some centres unmarked) , the logged pIC50 turned out to be 7.99

So for COc1cc(-c2cc3c(cc2OC)C(NC(=O)O[C@@H]2CN4CCC2CC4)C(C)(C)C3)ccn1 (some centres unmarked) , the logged pIC50 turned out to be 6.80

So for CC1(C)Cc2cc(-c3ccc(C4CC4)cc3)c(F)cc2C1NC(=O)O[C@@H]1CN2CCC1CC2 (some centres unmarked) , the logged pIC50 turned out to be 8.23

So for CC(C)COc1ccc(-c2ccc3c(c2)CC(C)(C)C3NC(=O)O[C@@H]2CN3CCC2CC3)cn1 (some centres unmarked) , the logged pIC50 turned out to be 8.60

So for CN(C)c1ccc(-c2ccc3c(c2)CC(C)(C)C3NC(=O)O[C@@H]2CN3CCC2CC3)cc1 (some centres unmarked) , the logged pIC50 turned out to be 7.53

So for CC1(C)Cc2ccc(-c3cccc(F)c3)cc2C1NC(=O)O[C@@H]1CN2CCC1CC2 (some centres unmarked) , the logged pIC50 turned out to be 7.10

So for Cc1cc(-c2ccc3c(c2)CC(C)(C)C3NC(=O)O[C@@H]2CN3CCC2CC3)co1 (some centres unmarked) , the logged pIC50 turned out to be 8.19

So for O=C(NC1CCc2cc(-c3ccccc3F)ccc21)O[C@@H]1CN2CCC1CC2 (some centres unmarked) , the logged pIC50 turned out to be 7.03

* * *

system: GM1 production in Jurkat cells; test: cells; assay type: cell-based; details: Homo sapiens, Jurkat, 72 h
property label: pIC50
In simple prose, pIC50 is minus the logarithm base ten of a concentration in moles per litre.

Fill in: GM1 production in Jurkat cells pIC50 for COc1cccc(OC)c1-c1cc2c(cc1F)C(NC(=O)O[C@@H]1CN3CCC1CC3)C(C)(C)C2 (stereo partly shown) = 6.91

Fill in: GM1 production in Jurkat cells pIC50 for Cc1cc(-c2ccc3c(c2)CC(C)(C)C3NC(=O)O[C@@H]2CN3CCC2CC3)cc(C(C)(C)C)c1 (stereo partly shown) = 7.29

Fill in: GM1 production in Jurkat cells pIC50 for CC1(C)Cc2ccc(-c3ccc(Cl)c(Cl)c3)cc2C1NC(=O)O[C@@H]1CN2CCC1CC2 (stereo partly shown) = 7.15

Fill in: GM1 production in Jurkat cells pIC50 for CC1(C)Cc2cc(-c3cc(Cl)ccc3Cl)ccc2C1NC(=O)O[C@@H]1CN2CCC1CC2 (stereo partly shown) = 7.98

* * *

system: GM1 production in Jurkat cells; test: cells; format: cell-based; conditions: Homo sapiens, Jurkat, 72 h
property label: pIC50
In simple prose, pIC50 is minus the logarithm base ten of a concentration in moles per litre.

So for CC(C)c1cccc(-c2cc3c(cc2F)C(NC(=O)O[C@@H]2CN4CCC2CC4)C(C)(C)C3)c1 (stereo partly shown) [Example 373] , the logged pIC50 turned out to be 7.51

So for O=C(NC1CCc2ccc(-c3ccc(OC(F)(F)F)cc3)cc21)O[C@@H]1CN2CCC1CC2 (stereo partly shown) [Example 28] , the logged pIC50 turned out to be 7.28

So for COCCOc1ccc(-c2ccc3c(c2)CC2(CC2)C3NC(=O)O[C@@H]2CN3CCC2CC3)cc1 (stereo partly shown) [Example 395] , the logged pIC50 turned out to be 7.51

So for COc1ccc(-c2cc3c(cc2OC)C(NC(=O)O[C@@H]2CN4CCC2CC4)C(C)(C)C3)c(F)c1 (stereo partly shown) [Example 323] , the logged pIC50 turned out to be 7.10

So for CC1(C)Cc2cc(-c3ccc(OCC(F)(F)F)cc3)ccc2C1NC(=O)O[C@@H]1CN2CCC1CC2 (stereo partly shown) [Example 116] , the logged pIC50 turned out to be 7.78

So for COc1cccc(-c2cc3c(cc2OC)C(NC(=O)O[C@@H]2CN4CCC2CC4)C(C)(C)C3)c1 (stereo partly shown) [Example 338] , the logged pIC50 turned out to be 7.27

So for CCC1(CC)Cc2cc(-c3c(OC)cccc3OC)ccc2C1NC(=O)O[C@@H]1CN2CCC1CC2 (stereo partly shown) [Example 300] , the logged pIC50 turned out to be 7.64

* * *

tested on: GM1 production in Jurkat cells; assay: cells; format: cell-based; settings: Homo sapiens, Jurkat, 72 h
Give IC50 for every item shown.
The reply should contain only the number, in nM.

So for CC1(C)Cc2cc(-c3ccc(Cl)c(F)c3)ccc2C1NC(=O)O[C@@H]1CN2CCC1CC2 (some centres unmarked) , the logged IC50 turned out to be 64.4

So for CCC1(CC)Cc2cc(-c3cccc(F)c3)ccc2C1NC(=O)O[C@@H]1CN2CCC1CC2 (some centres unmarked) , the logged IC50 turned out to be 11.2

So for COCCOc1ccccc1-c1ccc2c(c1)CC(C)(C)C2NC(=O)O[C@@H]1CN2CCC1CC2 (some centres unmarked) , the logged IC50 turned out to be 22.2

So for CCOc1c(C)cc(-c2cc3c(cc2OC)C(NC(=O)O[C@@H]2CN4CCC2CC4)C(C)(C)C3)cc1C (some centres unmarked) , the logged IC50 turned out to be 52.7

So for CCc1cccc(-c2cc3c(cc2OC)C(NC(=O)O[C@@H]2CN4CCC2CC4)C(C)(C)C3)c1 (some centres unmarked) , the logged IC50 turned out to be 20.9

So for CC1(C)Cc2cc(-c3cc(F)c(F)cc3F)ccc2C1NC(=O)O[C@@H]1CN2CCC1CC2 (some centres unmarked) , the logged IC50 turned out to be 16.2

So for CCC1(CC)Cc2cc(-c3ccc(OC(C)C)c(Cl)c3)ccc2C1NC(=O)O[C@@H]1CN2CCC1CC2 (some centres unmarked) , the logged IC50 turned out to be 27

So for CCC1(CC)Cc2cc(-c3ccc(C(C)C)cc3)ccc2C1NC(=O)O[C@@H]1CN2CCC1CC2 (some centres unmarked) , the logged IC50 turned out to be 5.6
